Tested on: SNB-75 CNS
Assay: NCI-60 one-dose screen, 48 h (100 = growth as untreated, 0 = no growth, -100 = all killed)
Details: 10 µM unless noted
The panel holds about 83,000 compounds, 20% with a hit somewhere; the sample as a whole holds those more often.
Would you please tag the item fulfilled when its growth is 40% or above, and not fulfilled when it is below?

These solved cases illustrate the format of a correct answer.
COc1ccc(-c2cnc3c(-c4cccc5cnccc45)cnn3c2)cc1: fulfilled
COc1cc2c(cc1OC)C(=O)/C(=C/c1cc(C)c(O)c(C)c1)S2: not fulfilled
c1ccc2c(-c3c[nH]c4ccccc34)c3c(cc2c1)[nH]c1ccccc13: not fulfilled
COc1ccc(/C=C/c2nc(Nc3ccc(S(=O)(=O)Nc4nc(C)cc(C)n4)cc3)c3ccccc3n2)cc1: fulfilled

Okay, now this compound:
In: Decide: is the reported value of growth for COC(=O)/C=C1\S/C(=N\NC(=O)c2cc3ccc2/C=C\c2ccc(cc2)/C=C\3)N(c2ccccc2)C1=O equal to or greater than 40%?
Out: fulfilled

----------
System: 786-0 renal
Assay: NCI-60 one-dose screen, 48 h (100 = growth as untreated, 0 = no growth, -100 = all killed)
Conditions: 10 µM unless noted
Compounds without any hit were thinned out: in the full panel of roughly 83,000, 20% have a hit.
Just a reminder that ties go to F: only growth strictly below 70% counts as T.

Worked examples, 8 compounds total:
COC(=O)C1=C(C(=O)ON)C2C=CC1(C(Cc1ccccc1)Nc1ccccc1)O2 (centres undefined): F
CCC(=O)Oc1ccc(/C(=C(\C)c2ccccc2)c2ccc(OCCN3CCCCC3)cc2)cc1: T
O=C(O)c1ccc2c(c1)C(=O)N(Cc1ccccc1)C2=O: F
O=C(Nc1ncc(Cc2cc(Cl)ccc2Cl)s1)c1cccs1: F
COC(=O)N[C@H]1CCc2c(Cl)c(OC)c(OC)c(OC)c2-c2ccc(SC)c(=O)cc21: T
O=S(=O)(NCCNc1nccc(-c2c(-c3cccc(F)c3)nc3sccn23)n1)c1ccc(Cl)cc1: T
O=C1c2ccccc2C(=O)c2c([N+](=O)[O-])ccc(Cl)c21: F
COc1cc(C(=O)Nc2cc3c(cc2Oc2cc(C)cc(C)c2)C(=O)N(C)[C@@H](CC(=O)N(C)O)C(=O)N3)c(Br)c(OC)c1OC: T

Next compound, please.
In: Does O=C(c1nnc(Nc2ccccc2Br)o1)c1c[nH]c2ccccc12 have growth strictly under 70%?
Out: F

----------
Test system: OVCAR-4 ovarian
Assay: NCI-60 one-dose screen, 48 h (100 = growth as untreated, 0 = no growth, -100 = all killed)
Conditions: 10 µM unless noted
This is part of a sample that, as a whole, favours compounds with a hit. Of some 83,000 tested, about 20% had one in any assay.
# reported growth; entries follow
// note: answer is a bare numeric in %

Worked set:
C=C1C(=O)O[C@H]2[C@H]1CC/C(CNC(=O)c1cccc3ccccc13)=C\CC[C@@]1(C)O[C@@H]21: 63.2
Cc1cccc(NC(=O)Nc2ccc(-n3cnc4cc(-c5ccc(O)cc5)ccc43)cc2)c1: 27.4
CC(=O)OC[C@]12CC[C@@H](C(=O)CBr)[C@@H]1[C@H]1CC[C@@H]3[C@@]4(C)CC[C@H](OC(C)=O)C(C)(C)[C@@H]4CC[C@@]3(C)[C@]1(C)CC2: 94

compound Cc1nc2sccn2c1-c1cn2ccsc2n1 , growth observed: 70.8

CCOC(=O)Nc1ccc(-c2ccc3c(c2)NC(=O)/C3=C\c2ccc[nH]2)cc1 yielded growth of 45

Lab note: measured growth of CN1CCN(c2ccc(NC3=C(Cl)C(=O)c4ncccc4C3=O)cc2C(F)(F)F)CC1 was -96.8

The reported growth of the compound O=C(Cn1c[n+](CC(=O)c2ccc(-c3ccccc3)cc2)c2ccccc21)Nc1cccc2cccnc12 was 10.3

Input OC(c1ccc(F)c(C(F)(F)F)c1)c1cnccc1NC1CCCCC1 (stereo not drawn) . Output growth: 64.8

The compound listed as COc1cccc(C(=O)NNc2nc(Cl)nc(N3CCN(C(c4ccccc4)c4ccccc4)CC3)n2)c1 shows growth equal to 72.2

growth reported for this compound Cc1cc2nc3c4cc(C=O)ccc4n(CCN(C)C)c3nc2cc1C : 23.8

Consider Cc1ccc(NC(=O)c2cc(-c3nc4ccccc4s3)c(=O)n(NS(=O)(=O)c3ccc(Cl)cc3)c2N)cc1 . Its measured growth is 103

The reported growth of the compound COc1cc2c(c(O)c1Cl)C(=O)c1c(O)cc(C[C@H](C)O)cc1[C@H]2[C@H]1c2cc(C[C@H](C)O)cc(O)c2C(=O)c2c1cc(OC)c(Cl)c2O was 12.7

compound COc1ccc(-c2nc(S(=O)(=O)c3ccccc3)c(S(=O)CC(=O)N3CCC(C)CC3)o2)cc1 (stereo not drawn) , growth observed: 28.8

Note to self: growth recorded for COC1=CC(=O)c2ccccc2C1=O was 70.4

Reference for the values: PubChem BioAssay (NCI)
